Tested on: MRSA 97-115
Experiment: Antibacterial activity test (MIC)
Type: cell-based, methicillin-resistant Staphylococcus aureus
Conditions: Mueller-Hinton Broth, 37° C., 20 to 24 hours
Please respond with reported minimal inhibitory concentration (MIC) for every item in the list.
Numbers only, in mg/L.

Check out these entries, answers already filled in.
INSERT INTO measurements (molecule, unit_spec, recorded_measurement) VALUES
  ('CCCCCCCCCCC1N=C(N)NC(NCc2ccc(C(F)(F)F)cc2)=N1.Cl (racemic)', 'mg/L', 0.8),
  ('CCCCCCCCC1N=C(N)N=C(N)N1c1cc(C(C)(C)C)ccc1OC.Cl (stereo not shown)', 'mg/L', 1.6),
  ('CCCCCCCCNC1=NC(C)(C)N=C(NCCCCCC)N1.O=C(O)C(O)C(O)C(O)C(O)CO', 'mg/L', 1.6),
  ('CCCCCCCCCCNC1=NC(C)(C)N=C(NCCc2ccccc2)N1.O=C(O)CC(=O)O', 'mg/L', 0.8),
  ('CCCCCCCCCCNC1=NC(C)(C)N=C(NCc2ccc(O)cc2)N1.Cl', 'mg/L', 0.8),
  ('CCCCCCCCCCCCC1N=C(N)NC(NCc2ccc(OC)cc2)=N1.Cl (racemic)', 'mg/L', 1.6);

# per-item lookup of minimal inhibitory concentration (MIC); items listed below
1. CCCCCCCCCCCCNC1=NC(C)(C)N=C(NCc2ccc(S(N)(=O)=O)cc2)N1
2. CC(=O)O.CCCCCCCCCNC1=NC(C)(C)N=C(NCc2ccccc2)N1
3. CCCCCCCCNC1=NC(C)(C)N=C(Nc2cccc3ccccc23)N1
4. CCCCCCCCCCCCC1N=C(N)N=C(N)N1CCc1ccc(OC)cc1.Cl (racemic)
5. CCCCCCCCCNC1=NC(C)(C)N(c2ccccc2)C(N)=N1.Cl

Outgoing:
[1.6, 1.6, 0.8, 1.6, 6.3]
